Cited source for all entries: patent US20240360228A1

Biological target: T1, human CCR8 (human, UniProt P51685 1-355)
T1 construct: Native CCR8 on human PBMC (CCR8+ CD3+ or CCR8+ CD4+ lymphocytes); also called chemokine (C-C motif) receptor 8
T1 sequence (P51685 whole entry): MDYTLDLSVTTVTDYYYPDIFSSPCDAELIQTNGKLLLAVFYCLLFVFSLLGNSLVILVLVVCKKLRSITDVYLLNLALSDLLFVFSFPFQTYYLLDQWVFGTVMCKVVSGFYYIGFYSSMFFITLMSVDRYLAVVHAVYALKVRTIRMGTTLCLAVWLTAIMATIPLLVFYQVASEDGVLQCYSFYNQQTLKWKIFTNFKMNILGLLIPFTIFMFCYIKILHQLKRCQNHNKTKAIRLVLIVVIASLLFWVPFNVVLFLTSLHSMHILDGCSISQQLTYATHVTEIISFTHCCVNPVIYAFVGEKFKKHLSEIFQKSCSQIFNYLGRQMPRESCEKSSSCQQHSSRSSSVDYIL
Test: flow blocking, PBMC CCR8+CD4+; competitor PE-AB4
ASSAY ENDPOINT: % Positive cells (%)

BINDER | ASSAY ENDPOINT | UNIT STRING | NUMERIC RESULT
AB13 (antibody, V domains shown, Hybridoma monoclonal; also called antibody 13; clone 13) VH: EVQLVETGGGLVQPKGSLKLSCAASGFTFNAYAMNWVRQAPGKGLEWVARIRTKSNNYATYYADSVKDRFTISRDDSQTMLYLQMNNLKTEDTAMYYCVRDRATVTTGRAMDYWGQGTSVTVSS VL: DIVMTQAAPSLPVTPGESVSISCRSSKSLLHSNGNTYLYWFLQRAGQSPQLLIYRMSNLASGVPDRFSGSGSGTAFTLRISRVEAEDVGVYYCMQHLEYPFTFGSGTKLEIK | % Positive cells | % | 2.11
